- study.target: S1PR2 (Homo sapiens, UniProt O95136)
- Sequence (O95136 whole entry): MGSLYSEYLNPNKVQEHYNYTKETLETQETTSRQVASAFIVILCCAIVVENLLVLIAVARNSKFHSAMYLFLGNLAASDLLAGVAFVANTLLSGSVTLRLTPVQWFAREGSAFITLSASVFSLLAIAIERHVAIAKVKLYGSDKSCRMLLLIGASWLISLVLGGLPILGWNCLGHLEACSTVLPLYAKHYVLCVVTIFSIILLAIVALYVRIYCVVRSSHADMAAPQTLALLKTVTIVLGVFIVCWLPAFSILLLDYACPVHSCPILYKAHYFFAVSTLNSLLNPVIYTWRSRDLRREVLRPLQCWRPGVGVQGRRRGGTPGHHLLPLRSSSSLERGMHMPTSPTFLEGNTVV
- protocol.text: GTP-γS binding assay ([35S]GTPγS, S1P at EC80, S1PR2 membranes)
- condition.notes: membranes from stable cell line over expressing S1PR2, read-out: S1PR2 EC
pEC50: −log10 of the molar value.
reported.property: pEC50

| compound | pEC50 |
| --- | --- |
| Cc1cc(CNC(=O)Nc2cnc(OCC(F)F)c(Cl)c2)nnc1-c1cn(C)nc1C(F)(F)F | 6.27 |
| Cc1cc(CNC(=O)Nc2cc(Cl)nc(OCC(F)F)c2)nnc1N1CCC(S(C)(=O)=O)C1 (centres unmarked) | 6.04 |
| CCOc1cc(NC(=O)NCc2cc(C)c(-c3cn(COC)nc3C(F)(F)F)nn2)cc(Cl)n1 | 7.04 |

a = Cn1cc(-c2nnc(CNC(=O)Nc3cc(Cl)nc(OCC(F)F)c3)cc2C2CC2)c(C(F)(F)F)n1
b = CCOc1cc(NC(=O)NCc2cc(C)c(-c3cnn(C)c3C)nn2)cc(C(F)(F)F)n1
IN: Between the entries labelled a and b , which has a larger pEC50 value on record? I would appreciate it if you answered with the label of your choice.
OUT: a
